Tested on: Magnaporthe grisea (Pyricularia oryzae)
Assay: whole plant or invertebrate
Assay type: in vivo
Conditions: foliar, read-out: control of Magnaporthe grisea
Quick reference for pest or weed control at 200 ppm among some compounds
VALUE_TYPE: pest or weed control at 200 ppm

[[record]]
compound = "Cc1sc(N(C(=O)C(C)O)c2cc(F)nc(F)c2)nc1C(=O)NC1CCC12CCCC2 (stereo not drawn)"
observed_result = "≥ 80%"

[[record]]
compound = "CC(=O)N(c1cc(F)nc(F)c1)c1nc(C(=O)NC2CCC23CCCC3)c(C)s1 (stereo not drawn)"
observed_result = "≥ 80%"

[[record]]
compound = "COC(=O)N(c1cc(F)nc(F)c1)c1nc(C(=O)NC2CCC2(C)C)c(C)s1 (stereo not drawn)"
observed_result = "≥ 80%"


Data provenance is patent US20230270114A1.
